Recorded values, source ChEMBL document CHEMBL5724796.

biological target: Bromodomain-containing protein 4 (Homo sapiens) (UniProt O60885); details: Compound concentration 20.0 uM
Non-standard residues stand in square brackets, D forms with d. Residues, ends and D or L forms follow the SMILES beside them. *: point of attachment. Benzoyl(4-tBu) = CC(C)(C)c1ccc(C(=O)*)cc1; Lys(Et2) = CCN(CC)CCCC[C@H](N)C(=O)O; Boc = CC(C)(C)OC(=O)*
ΔTm listing for selected compounds.
parameter: ΔTm (°C)

[[record]]
compound = "COc1cc2/c(=N/c3ccc(Br)cc3F)nc[nH]c2cc1OCC1CCN(C)CC1"
parameter = "ΔTm"
experimental_result = -0.83

[[record]]
compound = "O=c1[nH][nH]c(=O)c2cc(OCC3CCCCC3)ccc12"
parameter = "ΔTm"
experimental_result = -1.15

[[record]]
compound = "CCCSc1nc(N[C@@H]2C[C@H]2c2ccc(F)c(F)c2)c2nnn([C@@H]3C[C@H](OCCO)[C@@H](O)[C@H]3O)c2n1"
parameter = "ΔTm"
experimental_result = -3.15

[[record]]
compound = "CN(CC[C@@H](Oc1ccc(-c2ccccc2)cc1)c1ccc(F)cc1)CC(=O)O"
parameter = "ΔTm"
experimental_result = -0.22

[[record]]
compound = "N=C(N)SCc1ccc(CN2C(=O)C(=O)c3cc(C(F)(F)F)ccc32)cc1"
parameter = "ΔTm"
experimental_result = -2.92

[[record]]
compound = "Cc1nn2c(nc(O)c3cccnc32)c1C#N"
parameter = "ΔTm"
experimental_result = -3.07

[[record]]
compound = "O=C(Nc1ccc2[nH]nc(-c3ccncc3)c2c1)[C@@H]1CCN(CC(=O)N2CCN(c3ccc(-c4ncccn4)cc3)CC2)C1"
parameter = "ΔTm"
experimental_result = -1.51

[[record]]
compound = "Nc1c[nH]c(=O)c2cc(-c3ccccc3)sc12"
parameter = "ΔTm"
experimental_result = -1.56

[[record]]
compound = "CCN1C(C)(C)CC(Oc2ccc(C(=O)Nc3ccc(NC(=O)Nc4cc(C(C)(C)C)on4)cc3)nc2)CC1(C)C"
parameter = "ΔTm"
experimental_result = -1.48

[[record]]
compound = "CC(C)Oc1ccc2c(=O)[nH]c3sccc3c2c1"
parameter = "ΔTm"
experimental_result = -1.93

[[record]]
compound = "CC(C)C(=O)SCCCCCCC(=O)Nc1nc(-c2ccccc2)cs1"
parameter = "ΔTm"
experimental_result = -1.46

[[record]]
compound = "Cc1ccc(NC2=CC(=O)c3sc(C)nc3C2=O)cc1"
parameter = "ΔTm"
experimental_result = -1.66

[[record]]
compound = "N#Cc1ccc(-c2csc(NN=C3CCCC3)n2)cc1"
parameter = "ΔTm"
experimental_result = -1.71

[[record]]
compound = "CCN(CC)CCCC[C@H](NC(=O)[C@H](CC(C)C)NC(=O)[C@H](C)NC(=O)[C@H](Cc1ccccc1)NC(=O)c1ccc(C(C)(C)C)cc1)C(=O)N[C@@H](CO)C(=O)OC ({Benzoyl(4-tBu)}-FAL[Lys(Et2)]S-OMe)"
parameter = "ΔTm"
experimental_result = -1.71

[[record]]
compound = "O=c1[nH]ccc2cc(F)c(NS(=O)(=O)c3ccc(N4CC[C@@H](O)C4)s3)cc12"
parameter = "ΔTm"
experimental_result = -1.78

[[record]]
compound = "COc1ccc(N2CCN(C(=O)c3cc4c(s3)-c3ccccc3S(=O)(=O)C4)CC2)cc1"
parameter = "ΔTm"
experimental_result = -2.04

[[record]]
compound = "O=C(NO)c1ccc(CN2CCCc3cc(Cl)ccc32)cc1"
parameter = "ΔTm"
experimental_result = -1.3

[[record]]
compound = "CC(C)C[C@@H](C=O)NC(=O)[C@@H](NS(=O)(=O)c1ccc(F)cc1)C(C)C"
parameter = "ΔTm"
experimental_result = -1.83

[[record]]
compound = "O=C(O)CCNC(=S)NCCCC[C@H](NS(=O)(=O)c1cccc(F)c1)C(=O)N[C@@H](Cc1c[nH]c2ccccc12)C(=O)NC1CCC1"
parameter = "ΔTm"
experimental_result = -3.5

[[record]]
compound = "Cc1cc(-c2ccc3nc(C4CCOCC4)n(CCOC(F)(F)F)c3c2)cn(C)c1=O"
parameter = "ΔTm"
experimental_result = 10.3

[[record]]
compound = "CN1C(=O)c2c(nn(Cc3ccc(-c4cccc(F)n4)cc3)c2Nc2ccccc2)N2C1=N[C@@H]1CCC[C@@H]12"
parameter = "ΔTm"
experimental_result = 0.64

[[record]]
compound = "CC1(C)CC[C@]2(C(=O)O)CC[C@]3(C)C(=CC[C@@H]4[C@@]5(C)C=C(O)C(=O)C(C)(C)[C@@H]5CC[C@]43C)[C@@H]2C1"
parameter = "ΔTm"
experimental_result = -3.51

[[record]]
compound = "Cc1nn(CC(F)(F)F)cc1Nc1ncc(Br)c(NCc2ccc(S(N)(=O)=O)cc2)n1"
parameter = "ΔTm"
experimental_result = -2.79

[[record]]
compound = "C=CCn1c(N[C@@H]2C[C@H](c3ccc(OCc4ccccc4)cc3)CN(C)C2)nc2cc[nH]c2c1=O"
parameter = "ΔTm"
experimental_result = 0.73

[[record]]
compound = "CC(=O)N[C@@H](Cc1ccc(O)cc1)C(=O)N[C@H](C(=O)N[C@@H](C)C(=O)N[C@@H](CC(=O)O)C(=O)COC(=O)c1c(C)cccc1C)C(C)C"
parameter = "ΔTm"
experimental_result = -2.81

[[record]]
compound = "CC(C)[C@@H]1C(=O)N(S(C)(=O)=O)[C@@H]2CCN(C(=O)/C=C/CN3CCCCC3)[C@H]21"
parameter = "ΔTm"
experimental_result = -2.34

[[record]]
compound = "CC(=O)OCCN1C(=O)c2c(C)nc3ccc(S(=O)(=O)N4CCOCC4)cc3c2C1=O"
parameter = "ΔTm"
experimental_result = -1.49

[[record]]
compound = "CNCCN(C)Cc1cn[nH]c1-c1ccc(OC2CC(OCCC3CCOCC3)C2)cc1 (stereo not given)"
parameter = "ΔTm"
experimental_result = -1.82

[[record]]
compound = "CC(=O)N[C@@H](Cc1ccc(O)cc1)C(=O)N[C@H](C(=O)N[C@@H](C)C(=O)N[C@@H](CC(=O)O)C(=O)CCl)C(C)C"
parameter = "ΔTm"
experimental_result = -2.91

[[record]]
compound = "CC(C)(C)OC(=O)N1CCC[C@H]1C(=O)N1CCC[C@H]1C=O (Boc-Pro-Pro-aldehyde)"
parameter = "ΔTm"
experimental_result = -1.7

[[record]]
compound = "CN1CCN(c2cc(C(=O)Nc3ncc(SCc4cccc(C(F)(F)F)c4)s3)ccn2)CC1"
parameter = "ΔTm"
experimental_result = -0.44

[[record]]
compound = "COc1ccc(-n2c(SCCCN3C(=O)c4cccc5cccc(c45)C3=O)nnc2-c2ccncc2)cc1"
parameter = "ΔTm"
experimental_result = -3.3

[[record]]
compound = "CC(C)N(CCCNC(=O)Nc1ccc(C(C)(C)C)cc1)C[C@H]1O[C@@H](n2ccc3c(N)ncnc32)[C@H](O)[C@@H]1O"
parameter = "ΔTm"
experimental_result = -1.62

[[record]]
compound = "Cc1cnc(-c2ccccc2C(C)C)nc1NCc1ccc(-n2ccnn2)cc1"
parameter = "ΔTm"
experimental_result = -1.87

[[record]]
compound = "Nc1ncnc2nc(-c3ccc(N4CCOCC4)nc3)cc(-c3cccc(Br)c3)c12"
parameter = "ΔTm"
experimental_result = -3.54


====

molecular target: Transcription intermediary factor 1-alpha (Homo sapiens) (UniProt O15164); settings: Compound concentration 20.0 uM
Sequence (O15164 whole entry): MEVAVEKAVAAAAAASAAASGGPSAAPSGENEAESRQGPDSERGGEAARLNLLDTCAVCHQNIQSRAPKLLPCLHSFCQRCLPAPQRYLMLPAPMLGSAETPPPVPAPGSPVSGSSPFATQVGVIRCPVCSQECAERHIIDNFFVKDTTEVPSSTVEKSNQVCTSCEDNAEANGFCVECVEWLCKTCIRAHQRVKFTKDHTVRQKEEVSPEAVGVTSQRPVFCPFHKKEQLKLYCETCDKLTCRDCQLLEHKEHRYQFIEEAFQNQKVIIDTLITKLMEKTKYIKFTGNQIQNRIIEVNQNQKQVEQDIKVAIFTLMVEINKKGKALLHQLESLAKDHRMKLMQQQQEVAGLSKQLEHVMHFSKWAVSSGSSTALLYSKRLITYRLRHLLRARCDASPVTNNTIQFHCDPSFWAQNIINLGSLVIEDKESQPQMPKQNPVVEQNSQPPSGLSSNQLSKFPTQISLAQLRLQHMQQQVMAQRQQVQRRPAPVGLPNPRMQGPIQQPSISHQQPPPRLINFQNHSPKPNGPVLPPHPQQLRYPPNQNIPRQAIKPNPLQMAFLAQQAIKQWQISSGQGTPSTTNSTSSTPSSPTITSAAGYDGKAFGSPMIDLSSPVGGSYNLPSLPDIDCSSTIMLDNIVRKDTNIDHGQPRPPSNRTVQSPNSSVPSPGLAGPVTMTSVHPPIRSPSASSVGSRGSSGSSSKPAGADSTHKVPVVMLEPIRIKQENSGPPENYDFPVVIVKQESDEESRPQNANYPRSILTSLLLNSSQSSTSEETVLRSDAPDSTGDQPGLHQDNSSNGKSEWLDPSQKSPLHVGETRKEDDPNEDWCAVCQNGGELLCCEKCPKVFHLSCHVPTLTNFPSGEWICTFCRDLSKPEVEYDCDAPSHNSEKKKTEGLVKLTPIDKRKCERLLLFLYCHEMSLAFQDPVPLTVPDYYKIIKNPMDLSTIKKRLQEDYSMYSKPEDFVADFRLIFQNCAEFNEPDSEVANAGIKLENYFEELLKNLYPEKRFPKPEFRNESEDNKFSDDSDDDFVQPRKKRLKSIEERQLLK
Residues, ends and D or L forms follow the SMILES beside them.
Note to self: class labels come from recorded ΔTm, ranges listed here: bucket 1 (below -1 °C), bucket 2 (-1 °C to below -0.05 °C), bucket 3 (-0.05 °C or more)

[[record]]
molecule = "NC(=O)C1CCCc2c1[nH]c1ccc(Cl)cc21 (stereo not drawn)"
cat = "bucket 2"

[[record]]
molecule = "O=C(NO)c1cccc(C(=O)NCCc2ccccc2)c1"
cat = "bucket 1"

[[record]]
molecule = "Cc1ccc2c(c1)nc(/C=C/c1cccc3cccnc13)n2-c1cccc(OCCCN2CCN(C)CC2)c1"
cat = "bucket 3"

[[record]]
molecule = "CC(C)Oc1ccc(C=O)cc1"
cat = "bucket 2"

[[record]]
molecule = "Cn1ncc2c(-c3c(-c4ccc(F)cn4)nn4c3COC(C)(C)C4)ccnc21"
cat = "bucket 1"

[[record]]
molecule = "CC(=O)N[C@@H](CC(C)C)C(=O)N[C@@H](CCC(=O)O)C(=O)N[C@@H](Cc1cnc[nH]1)C(=O)N[C@H](C=O)CC(=O)O (Ac-LEHD-aldehyde)"
cat = "bucket 2"

[[record]]
molecule = "CNc1nccc(CN([C@H]2CC[C@H](N)CC2)S(=O)(=O)c2ccc(S(=O)(=O)N(Cc3ccc(Cl)cc3)C3CCCC3)cc2)n1"
cat = "bucket 3"

[[record]]
molecule = "CC[C@H](C)[C@H](NC(C)=O)C(=O)N[C@@H](CCC(=O)O)C(=O)N[C@H](C(=O)N[C@H](C=O)CC(=O)O)[C@@H](C)O (Ac-IETD-aldehyde)"
cat = "bucket 1"

[[record]]
molecule = "C[C@H](c1nc2c(cnn2C2CCOCC2)c(=O)[nH]1)N1CC(Oc2ccccc2)C1"
cat = "bucket 3"

[[record]]
molecule = "CC1(C)Cn2nc(-c3ccc(F)cn3)c(-c3ccnc4[nH]ncc34)c2CO1"
cat = "bucket 1"

[[record]]
molecule = "CN(CCC(Oc1ccc(-c2ccccc2)cc1)c1ccc(F)cc1)CC(=O)O (stereo not drawn)"
cat = "bucket 2"

[[record]]
molecule = "CCCCCCCCCCCCC/C=C/[C@@H](O)[C@H](CO)NC(=O)CBr"
cat = "bucket 1"

[[record]]
molecule = "C[C@@H](COCCC(=O)N1CCN(c2ncc(C(F)(F)F)cn2)CC1)Nc1cn[nH]c(=O)c1C(F)(F)F"
cat = "bucket 2"

[[record]]
molecule = "CCCC(NC(=O)C(CC(C)C)NC(=O)OCc1ccccc1)C(=O)C(=O)NCc1ccccn1 (racemic)"
cat = "bucket 2"

[[record]]
molecule = "C/C=C1\\NC(=O)[C@H]2CSSCC/C=C/[C@H](CC(=O)N[C@H](C(C)C)C(=O)N2)OC(=O)[C@H](C(C)C)NC1=O"
cat = "bucket 3"

[[record]]
molecule = "CC(=O)OCCN1C(=O)c2c(C)nc3ccc(S(=O)(=O)N4CCOCC4)cc3c2C1=O"
cat = "bucket 1"

[[record]]
molecule = "O=C(NCCCCCCCCNC(=O)C(Cl)Cl)C(Cl)Cl"
cat = "bucket 3"

